- Tested on: Cavia porcellus
- ASSAY: Inhibitory effect on platelet aggregation induced by Collagen in guinea pigs ex vivo at a dose of 1 mg/Kg after 6 hr of oral administration
- Format: functional
Rule: inhibition in vivo at 1 mg/kg under 70% gives false (0), otherwise true (1).

INSERT INTO results (query_smiles, group) VALUES
  ('COc1ccc(-c2nc(CNC(=O)NC(C)C)sc2-c2ccc(OC)cc2)cc1', 'true (1)');

Quick check: does COc1ccc(-c2nc(C(=O)N3CCN(C)CC3)sc2-c2ccc(OC)cc2)cc1 have inhibition in vivo at 1 mg/kg greater than or equal to 70%? true (1)

Does inhibition in vivo at 1 mg/kg meet or surpass 70% for COc1ccc(-c2nc(CNC(=O)CSc3ccccc3)sc2-c2ccc(OC)cc2)cc1 ? false (0)

Can COc1ccc(-c2nc(CNC(=O)CSC)sc2-c2ccc(OC)cc2)cc1 be said to have inhibition in vivo at 1 mg/kg at or above 70%? false (0)

Please tell me: is the compound COc1ccc(-c2nc(N3CCN(C)CC3)sc2-c2ccc(OC)cc2)cc1 at or over 70% in terms of inhibition in vivo at 1 mg/kg? false (0)

Does inhibition in vivo at 1 mg/kg meet or surpass 70% for COc1ccc(-c2nc(CNC(=O)C3=NNC(=O)CC3)sc2-c2ccc(OC)cc2)cc1 ? true (1)

* * *

- Organism: Oryctolagus cuniculus
- ASSAY: Inhibitory activity on the MDA production at 0.1 uM
- Assay type: functional
READOUT_KIND: Inhibition (%)
Please state the figure in %; there is no need to write the unit.

Here's what some known entries look like.
INSERT INTO measurements (query_smiles, readout_kind, numeric_result) VALUES
  ('COc1ccc(-c2nc(CNC(=O)CSc3ccccc3)sc2-c2ccc(OC)cc2)cc1', 'Inhibition', 73.6),
  ('COc1ccc(-c2nc(C(=O)N(C)C)sc2-c2ccc(OC)cc2)cc1', 'Inhibition', 51.4),
  ('COc1ccc(-c2nc(C(=O)NCCc3cccnc3)sc2-c2ccc(OC)cc2)cc1', 'Inhibition', 56.6);

Now consider a different compound.
The compound listed as COc1ccc(-c2nc(CNC(=O)CSC)sc2-c2ccc(OC)cc2)cc1 shows Inhibition equal to 73.3

* * *

- Species: Oryctolagus cuniculus
- ASSAY: In vitro antiplatelet activity against arachidonic acid induced malondialdehyde production
- Type: functional
Catalogue of molecules with associated pIC50
For clarity, pIC50 is expressed as the negative log10 of concentration in mol/L.

Known pIC50 results, listed for orientation:
INSERT INTO assay_data (molecule, readout_kind, numeric_result) VALUES
  ('COc1ccc(-c2nc(CNC(=O)C3=NNC(=O)CC3)sc2-c2ccc(OC)cc2)cc1', 'pIC50', 7.26),
  ('CNC(=O)NCc1nc(-c2ccc(OC)cc2)c(-c2ccc(OC)cc2)s1', 'pIC50', 7.66),
  ('COc1ccc(-c2nc(C(=O)N3CCN(C)CC3)sc2-c2ccc(OC)cc2)cc1 [FR-122047]', 'pIC50', 7.06),
  ('COc1ccc(-c2nc(CNC(=O)c3cccnc3)sc2-c2ccc(OC)cc2)cc1', 'pIC50', 7.60),
  ('Cc1cc(/N=C(\Nc2nccs2)NC2CCCCC2)c2ccccc2n1 [TIMEGADINE]', 'pIC50', 7.51),
  ('COc1ccc(-c2nc(CN(C)C)sc2-c2ccc(OC)cc2)cc1', 'pIC50', 7.02);

Looking up COc1ccc(-c2nc(N=C(N)N)sc2-c2ccc(OC)cc2)cc1 , I found its pIC50 recorded as 4.51

So for CCOC(=O)/C=C/c1nc(-c2ccc(OC)cc2)c(-c2ccc(OC)cc2)s1 , the logged pIC50 turned out to be 7.70

Given item COc1ccc(-c2nc(CNC(C)=O)sc2-c2ccc(OC)cc2)cc1 , the value recorded as its pIC50 is 7.82

* * *

- Species: Oryctolagus cuniculus
- ASSAY: In vitro antiplatelet activity against arachidonic acid induced malondialdehyde production
- Type: functional
READOUT_KIND: IC50 (nM)
Give just the number in nM; leave the unit off.

INSERT INTO measurements (query_smiles, readout_kind, unit_symbol, numeric_result) VALUES
  ('COc1ccc(-c2nc(C(F)(F)F)sc2-c2ccc(OC)cc2)cc1', 'IC50', 'nM', 5.6);

Pending molecule:
# IC50 (molecule: COc1ccc(-c2nc(CNC(=O)N3CCOCC3)sc2-c2ccc(OC)cc2)cc1 ) is 660

* * *

The reader will find reported inhibition in vivo at 1 mg/kg values listed item by item below.
- Test system: Cavia porcellus
- ASSAY: Inhibitory effect on platelet aggregation induced by Arachidonic acid (AA) in guinea pigs ex vivo at a dose of 1 mg/Kg after 6 hr of oral administration
- Format: functional
# value in %; strip the unit string

INSERT INTO assay_data (query_smiles, numeric_result) VALUES
  ('COc1ccc(-c2nc(N3CCN(C)CC3)sc2-c2ccc(OC)cc2)cc1', 60.9),
  ('COc1ccc(-c2nc(CNC(=O)CSc3ccccc3)sc2-c2ccc(OC)cc2)cc1', 16.5),
  ('COc1ccc(-c2nc(CNC(=O)C3=NNC(=O)CC3)sc2-c2ccc(OC)cc2)cc1', 100),
  ('COc1ccc(-c2nc(CNC(=O)NC(C)C)sc2-c2ccc(OC)cc2)cc1', 100);

Could you now look at the following compound, please?
inhibition in vivo at 1 mg/kg reading for COc1ccc(-c2nc(CNC(=O)CSC)sc2-c2ccc(OC)cc2)cc1 : -3.9

* * *

- Species on record: Oryctolagus cuniculus
- ASSAY: In vitro antiplatelet activity against arachidonic acid induced malondialdehyde production
- Type: functional
READOUT_KIND: IC50

Lab book: IC50 of COc1ccc(-c2nc(C(=O)N3CCCN(C)CC3)sc2-c2ccc(OC)cc2)cc1 noted as > 0.1 µM

Consider COc1ccc(-c2nc(C(=O)NCCN3CCOCC3)sc2-c2ccc(OC)cc2)cc1 . Its measured IC50 is > 1 µM

* * *

Each entry below carries its reported pIC50.
- Species: Oryctolagus cuniculus
- ASSAY: In vitro antiplatelet activity against arachidonic acid induced malondialdehyde production
- Assay type: functional
pIC50: −log10 of the molar value.

Below: 2 molecules and their reported pIC50.
INSERT INTO results (query_smiles, readout_kind, result) VALUES
  ('COc1ccc(-c2nc(C(=O)N3CCOCC3)sc2-c2ccc(OC)cc2)cc1', 'pIC50', '> 8.00'),
  ('CCOC(=O)/C(C#N)=C/c1nc(-c2ccc(OC)cc2)c(-c2ccc(OC)cc2)s1', 'pIC50', '> 8.00');

Kindly review the next molecule as well.
GET /value?item= COc1ccc(-c2nc(C(=O)N3CCCCC3)sc2-c2ccc(OC)cc2)cc1 &field=pIC50 returns < 6.00

* * *

- Organism: Oryctolagus cuniculus
- ASSAY: In vitro antiplatelet activity against arachidonic acid induced malondialdehyde production
- Assay type: functional
pIC50: −log10 of the molar value.
READOUT_KIND: pIC50

INSERT INTO assay_data (molecule, result) VALUES
  ('COc1ccc(-c2nc(C(=O)N3CCNC(CCO)C3)sc2-c2ccc(OC)cc2)cc1 (centres undefined)', '< 6.00');

What the record says about COc1ccc(-c2nc(C(=O)N3CCN(C(=O)NC(C)C)CC3)sc2-c2ccc(OC)cc2)cc1 : pIC50 is < 6.00

Note to self: pIC50 recorded for COc1ccc(-c2nc(/N=C(\N)n3ccnc3)sc2-c2ccc(OC)cc2)cc1 was < 7.00

GET /value?item= CCOC(=O)C1=C(C)N=C(C)/C(=C(/O)OCC)C1c1nc(-c2ccc(OC)cc2)c(-c2ccc(OC)cc2)s1 (centres undefined) &field=pIC50 returns > 7.00

// pIC50 lookup, molecule = COc1ccc(-c2nc(/N=C(\N)NC3CCCCC3)sc2-c2ccc(OC)cc2)cc1 , result: < 6.00

// COc1ccc(-c2nc(C(=O)N=C(N)N)sc2-c2ccc(OC)cc2)cc1 : pIC50 value = < 7.00

* * *

- Species on record: Oryctolagus cuniculus
- ASSAY: In vitro antiplatelet activity against arachidonic acid induced malondialdehyde production
- Assay type: functional
pIC50: −log10 of the molar value.
As shown below, each of these compounds has a reported pIC50 value.

Answered examples (5):
INSERT INTO assay_data (compound, result) VALUES
  ('COc1ccc(-c2nc(C(=O)NCCc3cccnc3)sc2-c2ccc(OC)cc2)cc1', '> 7.00'),
  ('COc1ccc(-c2nc(C(=O)N(C)C)sc2-c2ccc(OC)cc2)cc1', '> 7.00'),
  ('COc1ccc(-c2nc(/N=C(\N)NC(C)C)sc2-c2ccc(OC)cc2)cc1', '< 7.00'),
  ('CCOC(=O)CC(c1nc(-c2ccc(OC)cc2)c(-c2ccc(OC)cc2)s1)N1CCN(C)CC1 (stereo not drawn)', '< 6.00'),
  ('CC(=O)Oc1ccccc1C(=O)O', 4.80);

For record COc1ccc(-c2nc(CNC(=O)CSc3ccccc3)sc2-c2ccc(OC)cc2)cc1 the listed pIC50 is > 7.00

GET /value?item= CCN(CC)C(=O)c1nc(-c2ccc(OC)cc2)c(-c2ccc(OC)cc2)s1 &field=pIC50 returns > 8.00

The compound identified as COc1ccc(-c2nc(N3CCN(C)CC3)sc2-c2ccc(OC)cc2)cc1 registered its pIC50 at 7.41

Looking up CC/N=C(/N)Nc1nc(-c2ccc(OC)cc2)c(-c2ccc(OC)cc2)s1 , I see its pIC50 listed as < 7.00

Measured pIC50 of COc1ccc(-c2nc(CNC(=O)NC(C)C)sc2-c2ccc(OC)cc2)cc1 : 7.38

Reported pIC50 for COc1ccc(-c2nc(/N=C(\N)N3CCOCC3)sc2-c2ccc(OC)cc2)cc1 was > 6.00

Documented pIC50 of COc1ccc(-c2nc(CNC(=O)CSC)sc2-c2ccc(OC)cc2)cc1 : > 7.00

Recorded result, COc1ccc(-c2nc(CCC(=O)O)sc2-c2ccc(OC)cc2)cc1 , pIC50: > 7.00

Memo: COc1ccc(-c2nc(CN)sc2-c2ccc(OC)cc2)cc1 , reported pIC50: < 7.00

Record COc1ccc(-c2nc(C3=NNC(=O)CC3)sc2-c2ccc(OC)cc2)cc1 , field pIC50: < 6.00

Kindly note the recorded pIC50 for COc1ccc(-c2nc(/N=C(\N)N(C)C)sc2-c2ccc(OC)cc2)cc1 , which is 7.43
